assay: gradient 5% acetonitrile 3 min, to 50% in 2 min, to 85% in 15 min, held 3 min, 100 µL/min; details: column: Zorbax Extend-C18 2.1 x 50 mm; eluents: water / acetonitrile, 0.1% formic acid
assay_readout: RP-LC retention time (s)

| compound | unit_abbreviation | RP-LC retention time |
| --- | --- | --- |
| CCc1cc(=O)n(CC(=O)Nc2cc(F)ccc2F)c(-c2ccccc2)n1 | s | 1180 |
| O=C(Nc1nc2ccc(Cl)cc2s1)C1CCN(C(=O)C2Sc3ccccc3NC2=O)CC1 (centres undefined) | s | 903 |
| CCn1c(CNC(=O)C2CCC2)nc2c1CN(C(=O)c1ccc(OC)cc1)CC2 | s | 612 |
| O=S(=O)(c1ccc(Br)cc1)N1CCc2nc(-c3ccccc3)ncc2C1 | s | 1120 |
| COC(=O)C1CCN(S(=O)(=O)c2ccc(Cl)c(-c3nnc(-c4ccc(OC)cc4)o3)c2)CC1 | s | 1050 |

1: COC(=O)c1ccc(NC(=O)c2cnc3c(c2)c(=O)n(C)c(=O)n3-c2ccccc2)cc1
2: CNC(=O)[C@@H]1C[C@H](Oc2cccnc2)CN1C(=O)Cn1c(=O)oc2ccccc21
For the pair 1 and 2 , which entry has the numerically smaller recorded RP-LC retention time? Your answer should be the label of the entry you select.
2

A: Cc1oc(-c2[nH]ncc2C(=O)N2CCCC2)cc1S(=O)(=O)Nc1ccccc1F
B: Cc1cc(C)cc(-c2nnc(Cc3nc(-c4cccc(C(F)(F)F)c4)no3)o2)c1
For the pair A and B , which entry has the numerically smaller recorded RP-LC retention time? Your answer should be the label of the entry you select.
A
